Kindly supply the reported Ki values for the records listed here.
target_of_assay: Sigma intracellular receptor 2 (Homo sapiens, UniProt Q5BJF2)
Sequence (Q5BJF2 whole entry): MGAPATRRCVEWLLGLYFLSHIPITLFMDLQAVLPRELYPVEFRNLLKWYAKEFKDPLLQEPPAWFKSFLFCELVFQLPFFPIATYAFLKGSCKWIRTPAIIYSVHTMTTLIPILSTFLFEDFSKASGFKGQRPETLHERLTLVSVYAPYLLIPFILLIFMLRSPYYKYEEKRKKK
experimental_protocol: GPCRScan assay: inhibition of Sigma 2
Parameters: radioligand conc. used [nm] 5.0, parental cells HEKT
experimental_parameters: read-out: Ki
One number for each entry, in nM.

compound: COc1cc(-c2cn([C@H]3CCc4ccccc4N(CC(F)(F)F)C3=O)nn2)ccc1-n1ccc(C)n1
Ki [nM]: 835

Now let's try a different one.
Memo: "COc1cc(-c2cn([C@H]3CCc4c(F)cccc4N(CC(F)(F)F)C3=O)nn2)ccc1-n1cnc(C)c1" , reported Ki: 890

* * *

target_of_assay: Histamine H2 receptor (Homo sapiens, UniProt P25021)
Sequence (P25021 whole entry): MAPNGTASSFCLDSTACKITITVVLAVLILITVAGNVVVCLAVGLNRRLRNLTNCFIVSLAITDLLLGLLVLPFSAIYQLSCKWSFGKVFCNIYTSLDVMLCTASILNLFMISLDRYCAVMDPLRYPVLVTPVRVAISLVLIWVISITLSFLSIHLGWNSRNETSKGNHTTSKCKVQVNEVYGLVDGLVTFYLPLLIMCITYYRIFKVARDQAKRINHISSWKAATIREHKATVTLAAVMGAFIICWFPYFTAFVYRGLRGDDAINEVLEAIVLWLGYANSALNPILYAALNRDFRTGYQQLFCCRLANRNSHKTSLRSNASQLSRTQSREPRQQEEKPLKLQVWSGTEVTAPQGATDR
reported_endpoint: pKi
One number for each entry, as −log10 of the molar value.

So the reported pKi for "COc1cc(-c2cn([C@H]3CCc4c(F)cccc4N(CC(F)(F)F)C3=O)nn2)ccc1-n1cnc(C)c1" , on Histamine H2 receptor (Homo sapiens, UniProt P25021), turned out to be 6.01
